Below, each entry is listed alongside its reported Phage binding ELISA signal, Anti-PSMA Fab.
- System tested: T1, PSMA Fab
- T1 construct: Biotinylated and captured on neutravidin plates in the phage ELISA; also called Anti-PSMA Fab; 006 PSMA Fab
- Method description: clonal phage ELISA on biotinylated PSMA Fab captured on neutravidin, anti-M13 HRP detection;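 also: crude clonal phage supernatants added to wells pretreated with PSMA antigen in blocking buffer or with blocking buffer only, then briefly incubated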
# print the numeric value only

Please list Phage binding ELISA signal, Anti-PSMA Fab recorded for the binder EGVVCIPEWMCKGF [Phage-3032]
2.18

Tell us which Phage binding ELISA signal, Anti-PSMA Fab value is on record for SLAVCKPSWMCAGF (Peptide-180 library clone, tested as clonal phage supernatant (pIII display)) [Phage-3044]
2.17

Identify the reported Phage binding ELISA signal, Anti-PSMA Fab for the following entry. LMPLCVPVWMCSGF (Peptide-180 library clone, tested as clonal phage supernatant (pIII display)) [Phage-3035]
2.18

Fill in Phage binding ELISA signal, Anti-PSMA Fab for record YAHICKPSWMCDGF (Peptide-180 library clone, tested as clonal phage supernatant (pIII display)) [Phage-3034]
2.18

Find the measured Phage binding ELISA signal, Anti-PSMA Fab of VEPQCRPAWMCYGF (Peptide-180 library clone, tested as clonal phage supernatant (pIII display)) [Phage-3038] and report it.
2.18

State its Phage binding ELISA signal, Anti-PSMA Fab: EHLRCVPDWMCVGF (Peptide-180 library clone, tested as clonal phage supernatant (pIII display)) [Phage-3041]
2.17

The measurements presented in this section are drawn from patent US20260242478A1.
